// reported GI50 per item
Tested on: SK-MEL-5
Test: NCI tumour cell line growth inhibition, 48 h
Active and inactive are the calls of the source. No stated cut-off is given here; in the data, active = GI50 up to about 1.1 µM and inactive = higher.
measure name: GI50

>>> df
                                   compound               result
0  COc1cc(C2SCC(=O)N2c2ccc(-n3c(-c4ccccc4)nc4ccccc4c3=O)cc2)ccc1O (stereo unspecified)   49.3 µM (inactive)
1  C(=C\C(Sc1ccccc1)c1ccccc1)/NNC1=NN=C(c2ccccc2)C(c2ccccc2)N1 (stereo unspecified)   45.9 µM (inactive)
2  C=C1CC[C@H]2C(C)=CC[C@H]3C(=C)C(=O)O[C@@H]3[C@@H]12 [EREMANTHIN]  > 100 µM (inactive)
3  CCCCCCCCCCCCCCCCCC(=O)Nc1ccn(C2CCC(COP(=O)(O)O)O2)c(=O)n1 (stereo unspecified)  > 100 µM (inactive)
4  c1ccc2c(c1)nc1n2C2CCC(C2)N1 (stereo unspecified)   > 10 µM (inactive)
5           CCCCCCCCCCSS(=O)(=O)c1ccc(C)cc1   5.36 µM (inactive)

###

Test system: XF498
Experiment: NCI tumour cell line growth inhibition, 48 h
The source made the active and inactive calls. No stated cut-off is given here; in the data, active = GI50 up to about 1.1 µM and inactive = higher.
Classes used: T = active, F = inactive

molecule	experimental system	group
Cc1cc2c(C)nn(Cc3ccc(Cl)cc3)c2c(C#N)c1C	XF498	F
C=C1CC(CCCl)(c2ccccc2)OC1=O (configuration not stated)	XF498	F
C1=CC(=P(c2ccccc2)(c2ccccc2)c2ccccc2)C=C1	XF498	F
CC[C@]12C=CCN3CCC4(c5cc([C@@]6(C(=O)OC)CC7CN(CCc8c6[nH]c6ccccc86)C[C@@H]6CCCC[C@H]76)c(OC)cc5N(C)C4[C@](O)(C(=O)OC)C1OC(C)=O)[C@@H]32 (some centres not stated)	XF498	T
O=C(Cc1ccccc1)NN1C(=O)C(Cl)C1c1cccc(O)c1 (configuration not stated)	XF498	F
CC(=O)N1CCC2(C=Nc3ccccc32)CC1	XF498	F
CCOc1ccccc1Nc1nc(C)c(C(=O)CC(=O)C(=O)Nc2ccccc2)s1	XF498	F
COc1ccc(-c2cc(=O)c3c(O)cccc3o2)c(OC)c1OC	XF498	F
c1cncc(CSc2nc3ccccc3nc2-c2cccs2)c1	XF498	F
COc1ccc(C2ON(c3ccccn3)CC=C2C)cc1 (configuration not stated)	XF498	F
CC1(OCc2ccccc2)C(=O)N2C1N(C(=O)OCc1ccccc1)CC2(C)C (configuration not stated)	XF498	F
N#CC(C(=O)C(=O)Nc1ccccc1)c1ccccc1 (configuration not stated)	XF498	F
COc1c(OC)c(N)c2cc(C)c(=O)c(C)cc2c1N	XF498	F
c1ccc(CN2CCc3[nH]c4ccccc4c3C2)cc1	XF498	F
Clc1ccc(-c2nnc(-c3nn(-c4ccccc4)c4nc5ccccc5nc34)o2)cc1	XF498	F
COc1cc(Cc2ccc3c(c2C#N)N(C)c2ccccc2S3)cc(OC)c1OC	XF498	F
CO/N=C(/C(=O)Nc1c[n+](CC(=O)[O-])cs1)c1csc(N)n1	XF498	F
Cn1c(=O)c2c3ccccc3c(C(=O)c3ccccc3)n2c2ccccc21	XF498	F
O=C(Nc1cccc(Cl)c1)c1cc2cc(/N=N/c3ccc(Br)cc3)ccc2oc1=O	XF498	F
COC(=O)C(/C(=N/NC(N)=O)C(=O)Nc1c(C)cccc1C(C)(C)C)c1nc2ccc(Cl)cc2nc1O (configuration not stated)	XF498	F
Cn1c(=O)ccc2cc(C(=O)c3ccccc3)ccc21	XF498	F
CCOC(=O)/C(=C/c1ccccc1Br)P(=O)(OCC)OCC	XF498	F
